target: HIV-1 Env of isolate MGRM-F1-017 (subtype F) (HIV-1); assay: cell-based or functional assay
Outcome measure: IC50 (neutralization)

See these solved cases before continuing.
{"columns": ["Binder", "IC50 (neutralization)"],
 "data": [
  ["PGT-137 (antibody, V domains shown) VH: EVHLEESGPGLVRPSETLSLTCTASGGSIRGGEWGDSDYHWGWVRHSPEKGLEWIGSIHWRGTTHYNAPFRGRGRLSIDLSRNQFSLRLTSVTAEDTAVYYCVKHKYHDIVMVVPIAGWFDPWGQGLQVTVSS VL: EIMMTQSPAILSVSPGDRATLSCRASQSVKNNLAWYQKRPGQAPRLLIFDTSSRASGIPARFSGGGSGTEFTLTVNSMQSEDFATYYCQQYEEWPRTFGQGTKVEIK", "> 50 µg/mL"],
  ["PGT-127 (antibody, V domains shown) VH: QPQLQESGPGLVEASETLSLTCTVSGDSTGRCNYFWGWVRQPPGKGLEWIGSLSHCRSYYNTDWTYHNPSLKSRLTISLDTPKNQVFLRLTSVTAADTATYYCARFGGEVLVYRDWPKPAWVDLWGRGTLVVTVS VL: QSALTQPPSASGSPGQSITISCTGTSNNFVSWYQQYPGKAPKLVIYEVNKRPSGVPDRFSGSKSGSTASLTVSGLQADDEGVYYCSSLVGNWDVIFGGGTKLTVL", "> 50 µg/mL"]
]}

Then this binder:
INPUT: # lookup: IC50 (neutralization) of PGT-131 (antibody, V domains shown) VH: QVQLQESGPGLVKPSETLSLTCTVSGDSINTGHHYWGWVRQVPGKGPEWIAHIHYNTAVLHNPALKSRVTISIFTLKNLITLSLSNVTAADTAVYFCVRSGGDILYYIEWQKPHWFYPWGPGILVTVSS VL: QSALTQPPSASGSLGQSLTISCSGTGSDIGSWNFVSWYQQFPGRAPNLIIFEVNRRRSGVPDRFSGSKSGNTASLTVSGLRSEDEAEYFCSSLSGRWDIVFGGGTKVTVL
OUTPUT: > 50 µg/mL
